Test system: NCI-H23
Assay: NCI tumour cell line growth inhibition, 48 h
Active and inactive are the calls of the source. Rule as the data show it: active = GI50 up to about 1.1 µM and inactive = higher.
Outcome codes: active, inactive

{"columns": ["Compound", "Assay system", "Category"],
 "data": [
  ["Cc1cc2oc(C)c(S(=O)(=O)NC(=O)Nc3ccc(Cl)cc3)c(=O)c2c(=O)o1", "NCI-H23", "inactive"],
  ["Cc1cc(NC(=O)NC(=O)c2ccccc2[N+](=O)[O-])ccc1Oc1ncc(Cl)cn1", "NCI-H23", "active"],
  ["COC(=O)c1c2c(cc3c1CC1(Cc4cc5c(c(C(C)=O)c4C1)CCC5)C3)CCC2 (stereo not given)", "NCI-H23", "inactive"],
  ["Cc1ccc(C#CS(=O)(=O)C(F)(F)F)cc1", "NCI-H23", "inactive"],
  ["O=C(NCCCl)NCc1ccccc1", "NCI-H23", "inactive"],
  ["CCOC(=O)CCC(NC(=O)c1ccc(Nc2nc3ccccc3nc2-c2cccs2)cc1)C(=O)OCC (stereo not given)", "NCI-H23", "inactive"],
  ["COC(=O)CCC(=O)N1C/C(=C\\c2ccccc2)C(=O)/C(=C/c2ccccc2)C1", "NCI-H23", "inactive"],
  ["COCCOCOc1ccc(OCOCCOC)c2c1C(=O)c1ccccc1C2=O", "NCI-H23", "inactive"],
  ["O=C(NCCCCN(CCCNC(=O)C(F)(F)F)Cc1ccc2ccccc2c1)C(F)(F)F", "NCI-H23", "inactive"],
  ["CS(=O)(=O)CC1=Nc2nnc(CCCCCCCc3nnc4n3C(=O)C(CS(C)(=O)=O)=N4)n2C1=O", "NCI-H23", "inactive"]
]}

###

Test system: HT-29
Assay: NCI tumour cell line growth inhibition, 48 h
Active and inactive are the calls of the source. Cut-off read from the data, not from the text of the source: active = GI50 up to about 1.1 µM and inactive = higher.
Outcome codes: t for active, f for inactive

{"columns": ["Compound", "Assay system", "Category"],
 "data": [
  ["CC1=NOC2(C1)C(=O)Nc1ccccc12 (stereo not given)", "HT-29", "f"],
  ["CCC1(O)CC(OC2CC(N(C)C)C(OC3CC(O)C(OC4OC(C)C(=O)C=C4N)C(C)O3)C(C)O2)c2c(O)c3c(c(O)c2C1C(=O)OC)C(=O)c1cccc(O)c1C3=O (stereo not given)", "HT-29", "t"],
  ["Cc1nn(C)c2c1C(=O)N(C)CC(=O)N2C", "HT-29", "f"],
  ["O=C1CCC2c3ccccc3NCN12 (stereo not given)", "HT-29", "f"],
  ["Cc1cc2c(c3oc(C(O)(CO)C4CO4)cc(=O)c13)C(=O)c1c(O)cccc1C2=O (stereo not given)", "HT-29", "t"]
]}

###

Tested on: SF-268
Assay: NCI tumour cell line growth inhibition, 48 h
Active and inactive are the calls of the source. Rule as the data show it: active = GI50 up to about 1.1 µM and inactive = higher.
Below, each entry is listed with its recorded GI50.
Measured endpoint: GI50

{"columns": ["Compound", "Assay result"],
 "data": [
  ["N#Cc1ccc(C2SCc3nc4ccccc4n32)cc1 (stereo unspecified)", "> 100 µM (inactive)"],
  ["CC(C)(C)OC(=O)N1C(OP(=O)(Oc2ccccc2)Oc2ccccc2)=CSc2ccccc21", "59 µM (inactive)"],
  ["CCOC(=O)/C(=C\\NC(C)(C)C)c1nc2ccccc2o1", "37.8 µM (inactive)"],
  ["O=C(NCCCl)NCc1ccccc1", "> 100 µM (inactive)"],
  ["O=C1C(C(c2ccccc2)N2CCOCC2)=C(O)C(c2ccccc2)N1c1ccccc1 (stereo unspecified)", "> 10 µM (inactive)"],
  ["COc1ccc2c(c1)C(=O)Cc1ccccc1CC2", "> 100 µM (inactive)"],
  ["CCC(=O)NC(NNS(=O)(=O)c1ccc(C)cc1)(C(F)(F)F)C(F)(F)F", "55 µM (inactive)"],
  ["Cc1ccc2c(c1)CC1(Cc3cc(C)ccc3C1=O)C2=O", "> 100 µM (inactive)"],
  ["Cc1cc2oc(C)c(S(=O)(=O)NC(=O)Nc3ccc(Cl)cc3)c(=O)c2c(=O)o1", "> 100 µM (inactive)"],
  ["COC(=O)C(/C(=N/N)C(=O)Nc1cc(Cl)c(Cl)cc1Cl)c1nc2ccc(Cl)cc2nc1O (stereo unspecified)", "> 100 µM (inactive)"],
  ["CCc1ccccc1NC(=O)C(=O)C1C(=O)N(c2ccccc2)N=C1N (stereo unspecified)", "> 100 µM (inactive)"]
]}
